Target: Bifunctional protein GlmU (Mycobacterium tuberculosis (strain ATCC 25618 / H37Rv))
Experiment: inhibition of mycobacterial GlmU enzyme – biochemical, glucosamine-1-phosphate acetyltransferase (AID 1376)
Settings: M. tuberculosis GlmU acetyltransferase enzyme assay;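 tested at 30 µM in the primary screen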
Screen size: about 220,000 compounds; about 530 (0.24%) were called active. Cut-off read from the data, not from the text of the source: active = inhibition above about 13%; inconclusive = no clear call, values can overlap the other calls; inactive = below that. Shown is part of a subset that was picked to be rich in actives. Results with a measured potency or affinity are listed apart.
// one of active, inactive, no free text

Query: What classification did CCCNC(=O)c1nnsc1Sc1ccc(Cl)cc1 end up with in this test?
Result: inactive

Query: What classification did COc1ccc(NC(=O)C(c2ccccc2)c2ccccc2)cn1 end up with in this test?
Result: inactive

Query: What classification did O=C(Cn1cnc2c(nnn2Cc2ccc(F)cc2)c1=O)N1CCCc2ccccc21 end up with in this test?
Result: inactive

Query: What classification did Cc1cccc(Cn2cccc2/C=C2/C(=N)N3C=CSC3=NC2=O)c1 end up with in this test?
Result: inactive

Query: What classification did CCOc1ccc(NS(=O)(=O)c2ccc3[nH]c(=O)cc(C(=O)O)c3c2)cc1 end up with in this test?
Result: inactive

Query: What classification did CCC(C)(C(=O)NC1CCCCC1)N(C(=O)c1ccccn1)c1ccccc1 (centres undefined) end up with in this test?
Result: inactive

Query: What classification did CCC(C)(C(=O)NC1CCCCC1)N(C)C(=O)c1ccccn1 (centres undefined) end up with in this test?
Result: active

Query: What classification did CCOC(=O)C1=C(NC#N)OC(C)=C(C)C1c1ccc(O)cc1 (centres undefined) end up with in this test?
Result: inactive

Query: What classification did CCN(CC)C(=S)SCC(=O)c1ccccc1 end up with in this test?
Result: inactive

Query: What classification did Cc1cc(C)nc(Sc2ccc(/C=C(\C#N)C(=O)Nc3ccccc3)o2)n1 end up with in this test?
Result: inactive

Query: What classification did O=C(Nc1cccc(C(F)(F)F)c1)N1CCN(C(=O)Nc2cccc(C(F)(F)F)c2)CC1 end up with in this test?
Result: inactive

Query: What classification did O=C(COc1ccc(S(=O)(=O)NC2CCCCC2)cc1)N1CCN(c2ccc(F)cc2)CC1 end up with in this test?
Result: inactive

Query: What classification did COc1ccc(CSc2nnc(NC(C)=O)s2)cc1[N+](=O)[O-] end up with in this test?
Result: inactive

Query: What classification did CNC(=O)c1nnsc1S(=O)(=O)c1ccc(Cl)cc1 end up with in this test?
Result: inactive

Query: What classification did COc1ccc(/C=N/n2c(-c3ccco3)nc3ccccc3c2=O)cc1 end up with in this test?
Result: inactive

Query: What classification did COc1cccc(/C=N/n2c(-c3ccco3)nc3ccccc3c2=O)c1 end up with in this test?
Result: active

Query: What classification did CCc1nc(SCC(=O)N2CC(=O)Nc3ccccc32)c2c(C)c(C)sc2n1 end up with in this test?
Result: active

Query: What classification did Cc1sc2nc(C3CC3)nc(SCC(=O)N3CC(=O)Nc4ccccc43)c2c1C end up with in this test?
Result: inactive

Query: What classification did c1cc2nncn2nc1N1CCCC1 end up with in this test?
Result: inactive
